biological target: hemagglutinin (HA) ectodomain of A/New Caledonia/20/1999 (H1N1) (influenza A virus A/New …, biotin on the BirA site); assay: AlphaScreen or HTRF; conditions: both partners purified
Starred links: 1 amine or outer side, 2 acyl side, 3 side chain; linkers in the order of their positions; H or OH if unused. Positions of bridges follow the written chain, without caps; N, C: chain ends. No end group written: not given here. Suc = O=C(CCC(=O)[*:2])[*:1]
measured parameter: pIC50
Answers are plain numbers, as −log10 of the molar value.

binder	measured parameter	measured number
CYEDPLGVAGGMC (not fully specified; cysteine pairing not given here) [cyclic peptide CP12]	pIC50	5.31
LYEDPLGVAGGMG (head-to-tail lactam cyclized (no template), source: synthetic peptide (manual solid phase Fmoc chemistry, RP-HPLC)) [cyclic peptide CP14]	pIC50	5.91
CLYRDPLGVAGGMGC (not fully specified (bridges); cysteine pairing not given here, source: synthetic peptide (manual solid phase Fmoc chemistry, iodine oxidation, RP-HPLC)) [cyclic peptide CP8]	pIC50	6.80
CYRDPLGVAGGMC (disulfide 1-13, source: synthetic peptide (manual solid phase Fmoc chemistry, iodine oxidation, RP-HPLC)) [cyclic peptide CP11]	pIC50	5.30
CYRDPLGVAGEMC (not fully specified; cysteine pairing not given here) [cyclic peptide CP13]	pIC50	4.89

# input for lookup
Which pIC50 reading was recorded for the binder Suc-VSLYRDPLGVAGGMGVY-NH2 (source: synthetic peptide (manual solid phase Fmoc chemistry, RP-HPLC)) [linear peptide LP1] ?
4.64
